TARGET_OF_ASSAY: T1, 可溶性ヒトgp130受容体 (soluble human gp130 receptor, extracellular region of SEQ ID NO 1 with six histidines) (human, UniProt P40189 23-619)
T1 construct: Secreted from CHO DG44 cells and purified on HisTrap; no cleavage site is stated; also called 可溶性ヒトgp130受容体タンパク質; ヒト可溶性gp130受容体
T1 sequence: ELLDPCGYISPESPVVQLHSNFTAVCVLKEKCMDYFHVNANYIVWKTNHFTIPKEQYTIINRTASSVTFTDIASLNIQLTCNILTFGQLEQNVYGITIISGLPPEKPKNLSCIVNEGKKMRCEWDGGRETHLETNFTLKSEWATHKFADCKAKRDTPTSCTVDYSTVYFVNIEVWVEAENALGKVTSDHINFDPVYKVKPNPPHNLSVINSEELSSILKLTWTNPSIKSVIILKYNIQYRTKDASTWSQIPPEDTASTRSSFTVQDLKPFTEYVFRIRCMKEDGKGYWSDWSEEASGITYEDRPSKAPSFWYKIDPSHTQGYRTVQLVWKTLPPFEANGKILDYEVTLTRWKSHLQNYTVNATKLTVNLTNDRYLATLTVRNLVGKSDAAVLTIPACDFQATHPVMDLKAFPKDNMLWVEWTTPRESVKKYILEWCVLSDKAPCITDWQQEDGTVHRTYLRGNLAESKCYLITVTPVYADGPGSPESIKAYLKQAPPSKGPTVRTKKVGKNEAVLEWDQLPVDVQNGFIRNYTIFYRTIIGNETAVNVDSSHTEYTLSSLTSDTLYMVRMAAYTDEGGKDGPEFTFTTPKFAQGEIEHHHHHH
RUN_DESCRIPTION: ELISA, immobilised soluble human gp130, COS1 supernatant, anti-human antibody-HRP

BINDER | binding result
ヒト化抗体A AH3−AL1 (antibody, V domains shown, VH on human IgG1 constant region (pFUSEss-CHIg-hG1), VL on human kappa constant region (pFUSE2ss-CLIg-hk); also called AH3-AL1) VH: QVQLVQSGAEVKKPGASVKVSCKASGYTFTDYNMDWVRQAPGQGLEWIGDINSHSGGIIYNQKFKDKATMTVDTSTNTAYMELSSLRSEDTAVYYCARTYYVYGHFFDYWGQGTLVTVSS VL: DIQMTQSPSSLSASVGDRVTITCNVSSSVTSMYWYQQKPGKAPKLLIYLTSNLASGVPARFSGSGSGTEFTLTISSLQPDDFATYYCQQWSTNPLTFGAGTKLDLK | binds
ヒト化抗体A AH5−AL5 (antibody, V domains shown, VH on human IgG1 constant region (pFUSEss-CHIg-hG1), VL on human kappa constant region (pFUSE2ss-CLIg-hk); also called AH5-AL5) VH: EVQLVQSGPELKKPGASVKVSCKASGYTFTDYNMDWVKQRPGQGLEWIGDINSHSGGIIYNQKFKDRVTITADESTSTAYMELTSLTSEDTAVYYCARTYYVYGHFFDYWGQGTLVSVSS VL: DIQMTQSPASLSASVGETVTITCNVSSSVTSMYWYQQKPGKAPKLLIYLTSNLASGVPARFSGSGSGTEFTLTISSLQPDDFATYYCQQWSTNPLTFGAGTKLDLK | binds
